- Assay procedure: APR_HepG2_NuclearSize_24hr: Apredica 24-hour HepG2 Assay for Nuclear Size (AID 2282907)
- Test conditions: high-content imaging, actives raise or lower the signal
Calls of active or inactive are those of the source. The calls were made as follows: active = hit-call score of the fitted dose curve at least 0.9, where 1 is the maximum; inactive = score below 0.9.
Tick one outcome: 1 = active, -1 = inactive

# outcome recorded in this test, key = O=C(O)c1cccc(N(Cc2cccnc2)c2ccc(OC(F)F)c(OC(F)F)c2)c1
-1

# outcome recorded in this test, key = O=C1CCCCCN1
-1

# outcome recorded in this test, key = CCCCCCCCCCCCc1ccccc1
-1

# outcome recorded in this test, key = O=C(O)CC(O)C(=O)O (stereo not given)
-1

# outcome recorded in this test, key = CC/C(=C\C(=N/O)C(N)=O)C(C)[N+](=O)[O-] (stereo not given)
-1

# outcome recorded in this test, key = CCOc1cccc(-n2cc(C(=O)N3CCN(c4cc(C(=O)O)c5ccccc5c4)CC3)nc2-c2ccc(C)cc2)c1
-1

# outcome recorded in this test, key = NC(=O)NO
-1

# outcome recorded in this test, key = Cn1c(=O)cc(Oc2ccc(F)cc2F)c2cnc(NCC(C)(C)O)nc21
-1

# outcome recorded in this test, key = COc1cccc(-c2ccc(/C=C\CN3CCCCCC3)cc2Cl)c1
1

# outcome recorded in this test, key = O=C(NS(=O)(=O)/C=C/c1ccccc1)c1ccc(F)cc1Cl
-1

# outcome recorded in this test, key = CCc1cc(SCc2sc(-c3ccc(C(F)(F)F)cc3)nc2CN2CCN(c3ccc(OC)cc3)CC2)ccc1OCC(=O)O
-1

# outcome recorded in this test, key = C1=CCCC=CCCC=CCC1
-1

# outcome recorded in this test, key = CC1(C)C(=O)N(Br)C(=O)N1Br
-1

# outcome recorded in this test, key = CCCCCCCCO
-1

# outcome recorded in this test, key = CC[C@H]1OC(=O)[C@H](C)[C@@H](O[C@H]2C[C@@](C)(OC)[C@@H](O)[C@H](C)O2)[C@H](C)[C@@H](O[C@@H]2O[C@H](C)C[C@H](N(C)C)[C@H]2O)[C@](C)(O)C[C@@H](C)C(=O)[C@H](C)[C@@H](O)[C@]1(C)O
-1

# outcome recorded in this test, key = CCOCCOCCOCCO
-1

# outcome recorded in this test, key = C[C@](N)(Cc1ccc(O)c(O)c1)C(=O)O
-1

# outcome recorded in this test, key = CC(C)(O)c1coc(S(=O)(=O)NC(=O)Nc2c3c(cc4c2CCC4)CCC3)c1
-1

# outcome recorded in this test, key = Oc1ccc2c(c1)-c1ccccc1C2
-1

# outcome recorded in this test, key = CC(=O)OCCC(C)C
-1

# outcome recorded in this test, key = C1N2CN3CN1CN(C2)C3
-1

# outcome recorded in this test, key = CC(O)CN(CCN(CC(C)O)CC(C)O)CC(C)O (stereo not given)
-1

# outcome recorded in this test, key = CCn1nc(Cc2ccccc2)cc1C1CCN(C[C@H]2C[C@H](N(C)[C@@H](C(=O)O)C(C)C)C[C@@H]2c2cccc(F)c2)CC1
-1

# outcome recorded in this test, key = CCOC(=O)COc1ccc2c(c1)CC(NCC(O)c1cccc(Cl)c1)CC2 (stereo not given)
-1

# outcome recorded in this test, key = CC(C)CCCCCCOC(=O)c1ccc(C(=O)OCCCCCCC(C)C)c(C(=O)OCCCCCCC(C)C)c1
-1

# outcome recorded in this test, key = Clc1nc(Cl)c(Cl)c(Cl)c1Cl
-1

# outcome recorded in this test, key = COCCOc1cc2cc(C(=O)NC3CCN(C(C)C)CC3)n(CC(=O)Nc3ccc(Cl)cn3)c2cn1
-1

# outcome recorded in this test, key = CC(C)CCO
-1

# outcome recorded in this test, key = CC[C@H]1CC[C@H](NCc2cc3c(cc2OC)[C@H]2C[C@H]2C(=O)N3C)[C@H](c2ccccc2)N1
-1

# outcome recorded in this test, key = CN(C)c1ccc(Cc2ccc(N(C)C)cc2)cc1
-1

# outcome recorded in this test, key = COCCOCCOCCOC
-1

# outcome recorded in this test, key = CC(C)CCCCCCCOC(=O)CCCCC(=O)OCCCCCCCC(C)C
-1

# outcome recorded in this test, key = Nc1nc2ncc(CNc3ccc(C(=O)N[C@@H](CCC(=O)O)C(=O)O)cc3)nc2c(=O)[nH]1
-1

# outcome recorded in this test, key = O=C(O)CCN(C1(C(=O)NO)CCCC1)S(=O)(=O)c1ccc(Oc2ccc(F)cc2)cc1
-1

# outcome recorded in this test, key = O=C(O)c1cc(N=Nc2ccc(S(=O)(=O)Nc3ccccn3)cc2)ccc1O
-1

# outcome recorded in this test, key = On1ccccc1=S
-1

# outcome recorded in this test, key = COC(=O)c1c(Cl)c(Cl)c(C(=O)OC)c(Cl)c1Cl
-1

# outcome recorded in this test, key = CC(C)=CCC/C(C)=C/CO
-1

# outcome recorded in this test, key = CNS(=O)(=O)c1cc(C(=O)N2CCC(CCN3C4CCC3CC(n3c(C)nc5ccccc53)C4)(c3cccc(F)c3)CC2)c(Cl)cc1F (stereo not given)
-1

# outcome recorded in this test, key = O=c1[nH]c2ccc(S(=O)CCN3CCC(Cc4ccc(F)cc4)CC3)cc2o1 (stereo not given)
-1

# outcome recorded in this test, key = CCCCCCc1ccc(O)cc1O
-1

# outcome recorded in this test, key = O=C(OC[C@H]1O[C@@H](OC(=O)c2cc(O)c(O)c(OC(=O)c3cc(O)c(O)c(O)c3)c2)[C@H](OC(=O)c2cc(O)c(O)c(OC(=O)c3cc(O)c(O)c(O)c3)c2)[C@@H](OC(=O)c2cc(O)c(O)c(OC(=O)c3cc(O)c(O)c(O)c3)c2)[C@@H]1OC(=O)c1cc(O)c(O)c(OC(=O)c2cc(O)c(O)c(O)c2)c1)c1cc(O)c(O)c(OC(=O)c2cc(O)c(O)c(O)c2)c1
-1

# outcome recorded in this test, key = Nc1cccc(N)c1
-1

# outcome recorded in this test, key = CNCc1ccc(NC(=O)c2c[nH]c3c2C(=O)CCC3)cc1
-1

# outcome recorded in this test, key = Cc1ccc(C)c(O)c1
-1
